Target: mouse TRPM4 (Mus musculus, UniProt Q7TN37, Y228A)
Sequence (Q7TN37 whole entry Y228A): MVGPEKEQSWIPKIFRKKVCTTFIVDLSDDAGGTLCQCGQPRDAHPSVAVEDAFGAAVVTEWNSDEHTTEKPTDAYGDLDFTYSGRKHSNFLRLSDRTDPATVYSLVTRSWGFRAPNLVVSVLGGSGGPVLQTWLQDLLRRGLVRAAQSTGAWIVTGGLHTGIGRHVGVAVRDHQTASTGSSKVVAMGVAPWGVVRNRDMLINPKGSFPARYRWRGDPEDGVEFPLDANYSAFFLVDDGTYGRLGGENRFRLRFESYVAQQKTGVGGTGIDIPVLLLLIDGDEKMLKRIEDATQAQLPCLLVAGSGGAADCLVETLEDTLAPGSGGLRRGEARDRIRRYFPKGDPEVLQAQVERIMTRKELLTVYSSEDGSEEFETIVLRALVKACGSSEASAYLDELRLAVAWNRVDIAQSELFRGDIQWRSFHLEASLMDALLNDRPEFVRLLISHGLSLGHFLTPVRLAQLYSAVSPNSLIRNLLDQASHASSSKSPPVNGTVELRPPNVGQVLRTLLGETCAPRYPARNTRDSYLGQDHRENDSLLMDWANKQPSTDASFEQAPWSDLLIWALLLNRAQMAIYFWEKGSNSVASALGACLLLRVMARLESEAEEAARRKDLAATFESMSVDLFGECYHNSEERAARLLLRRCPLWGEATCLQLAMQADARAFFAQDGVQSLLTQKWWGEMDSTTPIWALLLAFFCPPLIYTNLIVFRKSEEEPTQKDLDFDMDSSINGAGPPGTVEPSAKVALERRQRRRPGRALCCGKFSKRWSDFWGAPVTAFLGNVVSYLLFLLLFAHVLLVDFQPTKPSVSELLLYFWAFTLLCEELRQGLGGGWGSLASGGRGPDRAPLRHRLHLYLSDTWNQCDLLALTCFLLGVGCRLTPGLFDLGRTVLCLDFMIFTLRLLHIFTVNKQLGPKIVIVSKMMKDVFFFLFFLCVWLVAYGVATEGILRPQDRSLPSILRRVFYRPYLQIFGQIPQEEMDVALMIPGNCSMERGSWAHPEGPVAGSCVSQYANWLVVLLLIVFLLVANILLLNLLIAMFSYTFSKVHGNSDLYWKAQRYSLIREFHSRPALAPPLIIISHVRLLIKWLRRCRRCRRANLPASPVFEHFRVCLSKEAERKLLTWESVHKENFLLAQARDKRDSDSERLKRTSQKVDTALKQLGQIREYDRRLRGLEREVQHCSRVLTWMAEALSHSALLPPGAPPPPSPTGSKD
Test: inside-out patch clamp, HEK293, macroscopic current at +[…] mV, Hill fit

compound structure: Nc1ncnc2c1ncn2[C@@H]1O[C@H](COP(=O)(O)OP(=O)(O)OP(=O)(O)O)[C@@H](O)[C@H]1O
IC50 / µM: 14.2
